From: patent US20230348616A1

biological target: T1, 6L; assay: flow cytometry on peptide-pulsed T2 cells, scFv 100 nM
T1 construct: also called HLA-A2 / point-mutant NY-ESO peptide 6L complex on T2 cells
// map standardized gMFI onto a label; ranges band 1 (below 6), band 2 (6 to below 9), band 3 (9 or more)

BINDER	LABEL
NYA-2023 (scFv) scFv: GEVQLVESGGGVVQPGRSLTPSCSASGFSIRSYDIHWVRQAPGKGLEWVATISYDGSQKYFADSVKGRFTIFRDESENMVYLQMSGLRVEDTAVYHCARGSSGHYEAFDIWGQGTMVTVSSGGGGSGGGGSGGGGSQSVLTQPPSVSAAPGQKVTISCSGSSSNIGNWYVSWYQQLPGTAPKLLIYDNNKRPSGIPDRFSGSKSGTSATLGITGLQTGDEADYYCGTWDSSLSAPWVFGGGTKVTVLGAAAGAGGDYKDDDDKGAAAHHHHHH	band 2
NYC-0004 (scFv, not shown: small tags and cut ends, also called T1 scFv; NYC-0004 tag adduct) scFv: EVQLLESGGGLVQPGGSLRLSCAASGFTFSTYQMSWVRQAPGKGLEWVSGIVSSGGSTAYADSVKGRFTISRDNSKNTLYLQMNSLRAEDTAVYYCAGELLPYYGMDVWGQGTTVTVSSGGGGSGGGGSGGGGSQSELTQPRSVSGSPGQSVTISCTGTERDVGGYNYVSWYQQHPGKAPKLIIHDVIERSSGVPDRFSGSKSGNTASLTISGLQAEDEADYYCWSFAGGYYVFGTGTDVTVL	band 1
NYA-1143 (scFv) scFv: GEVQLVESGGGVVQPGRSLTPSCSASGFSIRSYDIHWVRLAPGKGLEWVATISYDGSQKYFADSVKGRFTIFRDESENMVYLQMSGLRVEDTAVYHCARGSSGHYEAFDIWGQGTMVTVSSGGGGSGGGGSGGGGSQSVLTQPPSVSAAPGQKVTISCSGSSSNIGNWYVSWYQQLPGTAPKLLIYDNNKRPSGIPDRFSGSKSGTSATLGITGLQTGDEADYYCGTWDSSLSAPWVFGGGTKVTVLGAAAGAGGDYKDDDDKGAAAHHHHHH	band 3
NYA-2061 (scFv, also called NYA-2061 tag adduct) scFv: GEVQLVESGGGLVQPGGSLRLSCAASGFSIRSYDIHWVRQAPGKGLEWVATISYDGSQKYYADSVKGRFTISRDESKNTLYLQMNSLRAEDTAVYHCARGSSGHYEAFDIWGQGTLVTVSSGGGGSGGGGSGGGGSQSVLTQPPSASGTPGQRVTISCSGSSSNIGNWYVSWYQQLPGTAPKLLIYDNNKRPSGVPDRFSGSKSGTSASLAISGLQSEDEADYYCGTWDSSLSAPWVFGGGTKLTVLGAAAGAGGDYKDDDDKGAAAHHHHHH	band 2
NYA-2047 (scFv) scFv: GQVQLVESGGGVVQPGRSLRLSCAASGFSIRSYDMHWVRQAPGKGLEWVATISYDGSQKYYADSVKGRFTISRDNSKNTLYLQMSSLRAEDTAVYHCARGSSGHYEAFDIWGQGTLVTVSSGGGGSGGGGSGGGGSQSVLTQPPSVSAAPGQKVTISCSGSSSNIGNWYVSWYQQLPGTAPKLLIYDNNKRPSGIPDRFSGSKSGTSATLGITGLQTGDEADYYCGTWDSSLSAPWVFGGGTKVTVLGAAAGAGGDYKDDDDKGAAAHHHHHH	band 2
NYC-0003 (scFv, not shown: small tags and cut ends, also called 3M4E5 scFv; NYC-0003 tag adduct) scFv: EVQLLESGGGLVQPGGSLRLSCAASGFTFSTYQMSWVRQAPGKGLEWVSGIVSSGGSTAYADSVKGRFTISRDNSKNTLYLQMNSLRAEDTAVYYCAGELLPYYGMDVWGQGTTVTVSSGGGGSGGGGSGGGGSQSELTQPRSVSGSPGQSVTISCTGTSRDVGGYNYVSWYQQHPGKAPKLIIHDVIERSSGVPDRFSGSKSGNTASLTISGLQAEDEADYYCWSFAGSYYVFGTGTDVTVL	band 1
